Recorded cell viability values for a group of compounds are listed next.
test system: NOMO1; test: cell viability relative to DMSO control; higher = less cytotoxic; settings: RPMI 5 mM glucose + 10% FBS; 48 h; 0.00234 µM
I only need the number, in %, no unit after it.

// worked examples, cell viability included
C[N+](C)(C)CC(=O)O.[Cl-]    86
C/C(=C\c1csc(C)n1)[C@@H]1C[C@@H]2O[C@@H]2CCC[C@H](C)[C@H](O)[C@@H](C)C(=O)C(C)(C)[C@@H](O)CC(=O)O1    19.5
Cc1cc(SCc2sc(-c3ccc(C(F)(F)F)cc3)nc2C)ccc1OCC(=O)O    97.1
NC(=O)c1ccc(-c2nc(-c3ccc4c(c3)OCO4)c(-c3ccccn3)[nH]2)cc1    112
FC1=CC=C(CN2\C=C/C=C(/C(=O)N[C@@H](COC3=CC4=C(NC(=O)N4)C=C3)C5=CC=CC=C5)C2=O)C=C1F    80.1

Recorded cell viability for CO[C@H]1/C=C/O[C@@]2(C)Oc3c(C)c(O)c4c(O)c(c(/C=N/N5CCN(C)CC5)c(O)c4c3C2=O)NC(=O)/C(C)=C\C=C\[C@H](C)[C@H](O)[C@@H](C)[C@@H](O)[C@@H](C)[C@H](OC(C)=O)[C@@H]1C , please?
123

COc1cc(NC(=O)c2ccc(-c3ccc(Cl)cc3)o2)cc(OC)c1 ?
106

Let us now turn to O=C1CCC[C@@H]2[C@H]3CCC[N+]4([O-])CCC[C@@H](CN12)[C@@H]34 (stereo partly drawn)
86.8
